meta.source: a melting point compilation (Tetko et al.; mined from patent text by program, amines drawn as free bases though some values may be those of a salt)

I'd be grateful if you could share measured melting point for these entries.

Query CC(=O)SCC(=O)C1CCC2C3CCC4CC(O)C(N5CCOC(C)(C)C5)CC4(C)C3C(=O)CC12C (configuration not stated) yields melting point of 181 to 182 °C

The compound listed as CN1CCC(O)(c2ccccc2C(O)c2ccccc2)CC1 (configuration not stated) has a reported melting point of 190 to 191 °C

Consider O=C(N[C@H](Cc1ccccc1)C(=O)O)OCc1ccc(COc2ccccc2)cc1 . Its measured melting point is 116 to 117 °C

For this compound ( C=CCOc1cc(C(=O)OC)cc(OCC=C)c1NC(C)=O ), measured melting point is 135 to 137 °C

Consider Cn1nc(C(=O)NCc2ccc(Cl)cc2)c(=O)c2cc(C#CCO)ccc21 . Its measured melting point is 229 to 231 °C

GET /value?item= CCOC(=O)c1cnc2c(c(C)nn2-c2ccccn2)c1O &field=melting point returns 166 to 169 °C

Entry under test: Nc1ccc2ccc(Oc3ccc(Cl)cc3)nc2n1 . Its melting point was 177 °C

Measured melting point of CCCCCCOc1cc(O)c(-c2nc(-c3ccc(C)cc3C)nc(-c3ccc(C)cc3C)n2)cc1C(C)(C)c1ccccc1 : 111 to 115 °C

Please fill in: melting point reported for CCOC(=O)c1c(O)c2ccc(C)nc2n(C)c1=O = 143 to 145 °C

// field: melting point; key: Cc1csc(Nc2nc(C(C)(C)C)c(O)c(C(C)(C)C)n2)n1 ; value = 171 to 173 °C

Recorded melting point (compound CN(C)CCCC(=O)Nc1nc2c(s1)-c1c(cnn1-c1ccccc1)CC2 ): 165 to 166 °C

Documented melting point of CC1(C(O)(C=Cc2ccc(Cl)cc2Cl)Cn2ccnc2)COCOC1 (configuration not stated) : 142 to 144 °C

Recorded melting point (compound COC(=O)Cc1ccc(OCCNC(=O)C2Cc3ccccc3N2S(=O)(=O)c2ccc(-c3ccc(Cl)cc3)c(C(F)(F)F)c2)cc1 (configuration not stated) ): 60 °C

Memo: COc1cc2c(cc1OC(C)=O)CCC1C2CCC2(C)C1C=CC21OCCO1 (configuration not stated) , reported melting point: 161 to 162 °C

Briefly, melting point measured for Cc1ccccc1-n1c(=O)c(N2CCNCC2)nc2ccccc21 : 151 to 153 °C

// field: melting point; key: COc1ccc(-c2sc3cccnc3c2OC(C)=O)cc1 ; value = 146 to 148 °C

Form: compound = CCCC[C@]1(CC)CS(=O)(=O)c2cc(O)c(O)cc2[C@@H](c2ccccc2)N1 ; melting point = 117 to 118 °C

Just so you know, measured melting point for Cc1csc(N2C(=O)C(Cc3ccccc3)NC2=S)n1 (configuration not stated) came out at 169 to 171 °C

Reported melting point of C[C@H]1CCCN(C(=O)Cc2ccc(Cl)c(Cl)c2)[C@H]1CO (relative stereo) : 161 to 162 °C

Form field melting point, entry O=C(NC1N=C(c2ccccc2F)c2ccccc2NC1=O)c1ccccc1 (racemic) : 243 to 244 °C

For COc1cccc(-c2cccc(OC3SCC(O)C(O)C3O)c2)n1 (configuration not stated) the compound record lists melting point as 206 °C

Summary for this compound, CSCC(C)(CN)C(=O)N(C)c1nnc(-c2cncc(F)c2)s1 (configuration not stated) : melting point is 154 to 157 °C

Lab note: NC1=NS(=O)N=C1NCCSCc1ccc(CN2CCCCC2)o1 (configuration not stated) gave melting point of 161 to 163 °C

melting point in this record for Cc1cn(Cc2ccccc2[N+](=O)[O-])c(=O)o1 : 82.9 to 83.9 °C

melting point reported for this compound CCCN1CCCN(c2ccccc2)c2cc(Cl)ccc21 : 192 to 194 °C

Recorded result, CC(=CC(=O)c1ccncc1)N(C)C , melting point: 88 to 89 °C

Sure, the documented melting point for CC(=O)OCC(O)(COC(C)=O)c1ccc(F)cc1F is 70.5 to 71.5 °C

Memo: Cc1cc(Cl)ccc1N1CCCN(C)C1=S , reported melting point: 143 to 145 °C

For O=C1C=C(c2cccc(Cl)c2)CN(Cc2ccccc2)C1 the compound record lists melting point as 143 to 145 °C

Documented melting point of O=C(O)CCc1cnoc1-c1ccc(F)cc1F : 125 to 126 °C

The measured melting point associated with CCOC(=O)c1ccc(N)cc1O reads 113 to 115 °C

For O=C(O)CCCN(C(=O)c1ccc(F)cc1)c1ccccc1-c1ccccc1 the compound record lists melting point as 120 to 122 °C
